Assignment: determine reported Remaining percentage (%) 240 min for the given compounds.
test: Stability test in human plasma; conditions: human plasma, 37° C., 240 min
Numeric answer only, unit % assumed.

Q: Check the records and state Remaining percentage (%) 240 min for `[2H]C([2H])([2H])c1cccc2cccc(N3CCc4c(nc(OC[C@@H]5CCCN5C)nc4N4CCN(C(=O)C=C)[C@@H](CC#N)C4)C3)c12`
Ans: 25.75

Q: Check the records and state Remaining percentage (%) 240 min for `[2H]C([2H])([2H])N1CCC[C@H]1COc1nc2c(c(N3CCN(C(=O)C=C)[C@@H](CC#N)C3)n1)CCN(c1cccc3cccc(C)c13)C2`
Ans: 27.49

Q: Check the records and state Remaining percentage (%) 240 min for `[2H]C([2H])([2H])c1cccc2cccc(N3CCc4c(nc(OC[C@@H]5CCCN5C([2H])([2H])[2H])nc4N4CCN(C(=O)C=C)[C@@H](CC#N)C4)C3)c12`
Ans: 47.82

The values you see were collected from patent US20230257374A1.
